System: 11 clinically relevant bacterial pathogens
Format: cell-based
Condition: Supplementary Dataset 2; against the 11 pathogens tested
Peptide text beside a SMILES is read from it.
Attribute Measured: Active or Inactive

Consider the worked cases shown below.
[
  {
    "Molecule": "CC[C@H](C)[C@H](NC(=O)[C@H](CO)NC(=O)CNC(=O)[C@H](CC(C)C)NC(=O)[C@H](CC(C)C)NC(=O)[C@H](CC(C)C)NC(=O)[C@H](CCCNC(=N)N)NC(=O)[C@H](CCCCN)NC(=O)[C@@H](NC(=O)[C@H](CO)NC(=O)[C@H](CC(N)=O)NC(=O)[C@@H](NC(=O)[C@H](CC(C)C)NC(=O)[C@@H](N)CC(C)C)[C@@H](C)CC)[C@@H](C)CC)C(=O)N[C@@H](CC(C)C)C(=O)O [Arctodutin-1] (H-LLINSIKRLLLGSIL-OH; N-terminus and C-terminus assumed)",
    "System Tested": "11 clinically relevant bacterial pathogens",
    "Attribute Measured": "Active or Inactive",
    "Value Measured": "Active"
  },
  {
    "Molecule": "CC[C@H](C)[C@H](NC(=O)[C@H](CCCCN)NC(=O)[C@@H](NC(=O)[C@H](Cc1c[nH]c2ccccc12)NC(=O)[C@H](CCCCN)NC(=O)[C@@H](N)CCCCN)[C@@H](C)O)C(=O)N[C@@H](Cc1ccc(O)cc1)C(=O)N[C@@H](CO)C(=O)N1CCC[C@H]1C(=O)N[C@@H](CC(C)C)C(=O)N[C@@H](CO)C(=O)N[C@@H](CC(C)C)C(=O)O [Smilodin-1] (H-KKWTKIYSPLSL-OH; N-terminus and C-terminus assumed)",
    "System Tested": "11 clinically relevant bacterial pathogens",
    "Attribute Measured": "Active or Inactive",
    "Value Measured": "Active"
  },
  {
    "Molecule": "CC[C@H](C)[C@H](NC(=O)[C@H](Cc1ccccc1)NC(=O)[C@@H](N)CCCCN)C(=O)N[C@@H](CC(C)C)C(=O)N[C@@H](CC(N)=O)C(=O)N[C@@H](Cc1ccccc1)C(=O)N[C@@H](CCCCN)C(=O)N[C@H](C(=O)N1CCC[C@H]1C(=O)N[C@H](C(=O)N[C@@H](CO)C(=O)N[C@@H](Cc1ccccc1)C(=O)N[C@@H](CCCCN)C(=O)O)[C@@H](C)CC)[C@@H](C)CC [Pinguinusin-1] (H-KFILNFKIPISFK-OH; N-terminus and C-terminus assumed)",
    "System Tested": "11 clinically relevant bacterial pathogens",
    "Attribute Measured": "Active or Inactive",
    "Value Measured": "Active"
  },
  {
    "Molecule": "CC[C@H](C)[C@H](NC(=O)[C@H](Cc1ccccc1)NC(=O)[C@@H](N)CC(C)C)C(=O)NCC(=O)N[C@@H](CC(C)C)C(=O)N[C@H](C(=O)N[C@@H](CC(N)=O)C(=O)N[C@@H](CC(C)C)C(=O)N[C@@H](CC(C)C)C(=O)NCC(=O)N[C@@H](CC(C)C)C(=O)N[C@@H](CC(C)C)C(=O)O)[C@@H](C)O [Mammuthusin-4] (H-LFIGLTNLLGLL-OH; N-terminus and C-terminus assumed)",
    "System Tested": "11 clinically relevant bacterial pathogens",
    "Attribute Measured": "Active or Inactive",
    "Value Measured": "Active"
  },
  {
    "Molecule": "CC[C@H](C)[C@H](NC(=O)[C@H](CCCCN)NC(=O)[C@@H](N)CCCNC(=N)N)C(=O)N[C@@H](CC(C)C)C(=O)NCC(=O)N[C@@H](CC(=O)O)C(=O)N[C@@H](CC(C)C)C(=O)N[C@@H](CCCCN)C(=O)N[C@@H](Cc1ccccc1)C(=O)N[C@@H](CC(C)C)C(=O)N[C@@H](CCC(=O)O)C(=O)N[C@@H](CO)C(=O)N[C@@H](CC(C)C)C(=O)N[C@@H](CCCCN)C(=O)N[C@H](C(=O)N[C@@H](Cc1ccc(O)cc1)C(=O)O)[C@@H](C)O [Anomalopterin-1] (H-RKILGDLKFLESLKTY-OH; N-terminus and C-terminus assumed)",
    "System Tested": "11 clinically relevant bacterial pathogens",
    "Attribute Measured": "Active or Inactive",
    "Value Measured": "Active"
  }
]

# input Can you look up the measured Active or Inactive of CC[C@H](C)[C@H](NC(=O)[C@@H](N)CC(C)C)C(=O)N[C@H](C(=O)N[C@@H](CS)C(=O)N[C@@H](Cc1ccccc1)C(=O)N[C@@H](Cc1ccccc1)C(=O)N[C@@H](CCCNC(=N)N)C(=O)N[C@@H](CCC(N)=O)C(=O)N[C@@H](CC(C)C)C(=O)N[C@@H](CCCCN)C(=O)N[C@@H](Cc1ccccc1)C(=O)N[C@@H](Cc1c[nH]cn1)C(=O)N[C@@H](Cc1ccccc1)C(=O)O)C(C)C [Megalocerin-1] (H-LIVCFFRQLKFHF-OH; N-terminus and C-terminus assumed) for me?
# output Active

# input Can you look up the measured Active or Inactive of CC[C@H](C)[C@H](NC(=O)[C@H](CCCCN)NC(=O)[C@H](CC(C)C)NC(=O)[C@H](CCC(N)=O)NC(=O)[C@H](Cc1ccccc1)NC(=O)[C@@H](NC(=O)[C@@H](NC(=O)[C@H](Cc1ccccc1)NC(=O)[C@H](CC(C)C)NC(=O)[C@@H](NC(=O)[C@@H](N)CC(C)C)[C@@H](C)O)[C@@H](C)CC)[C@@H](C)CC)C(=O)N[C@@H](CO)C(=O)N[C@@H](CCCCN)C(=O)N[C@@H](CC(C)C)C(=O)O [Paleopropin-1] (H-LTLFIIFQLKISKL-OH; N-terminus and C-terminus assumed) for me?
# output Active

# input Can you look up the measured Active or Inactive of CC[C@H](C)[C@H](N)C(=O)N[C@@H](Cc1ccccc1)C(=O)N[C@@H](CC(C)C)C(=O)N[C@@H](Cc1c[nH]cn1)C(=O)N[C@@H](CC(C)C)C(=O)N[C@@H](CCCCN)C(=O)N[C@H](C(=O)N[C@@H](CC(C)C)C(=O)N[C@@H](CCCCN)C(=O)N[C@H](C(=O)N[C@H](C(=O)N[C@@H](CCCNC(=N)N)C(=O)N[C@@H](CC(C)C)C(=O)N[C@@H](CC(C)C)C(=O)O)[C@@H](C)CC)[C@@H](C)CC)[C@@H](C)CC [Elephasin-2] (H-IFLHLKILKIIRLL-OH; N-terminus and C-terminus assumed) for me?
# output Active
